- System: OVCAR-4
- test description: NCI tumour cell line growth inhibition, 48 h
Activity calls are given as the source filed them. Cut-off read from the data, not from the text of the source: active = GI50 up to about 1.1 µM and inactive = higher.
Quick reference for GI50 among some compounds

compound	system under test	test value
CN(CCC#N)c1ccc(/C=C2\SC(=S)NC2=O)cc1	OVCAR-4	62.8 µM (inactive)
Cc1cn2c(/C=C3/C(=O)Nc4cccc(Cl)c43)c(Cl)nc2s1	OVCAR-4	> 100 µM (inactive)
O=c1c(C(c2ccc(Cl)cc2)c2c(O)c3ccccc3n(-c3ccccc3)c2=O)c(O)c2ccccc2n1-c1ccccc1	OVCAR-4	32.1 µM (inactive)

Problem: Please give measured GI50 of the following entry: `N#C/N=C(/N)c1sc2nc3c(c(-c4ccc(Br)cc4)c2c1N)CCCC3`
Result: 3.21 µM (inactive)

Problem: Please give measured GI50 of the following entry: COC(=O)C1=C(O)c2cc(OC)c(OC)c(OC)c2[C@H](c2cc(OC)c(OC)c(OC)c2)C1C(=O)OC (stereo not given in full)
Result: 32.6 µM (inactive)
